The reported numbers originate from BigSolDB 2.1.

- testParameters: in acetonitrile, 288.15 K
propertyLabel: solubility (mole fraction)

Briefly, solubility (mole fraction) measured for O=C(O)COc1ccc(Cl)cc1Cl : 0.0306

* * *

- testParameters: in acetonitrile, 308.15 K
propertyLabel: solubility (mole fraction)

Record O=C(O)COc1ccc(Cl)cc1Cl . Reported solubility (mole fraction): 0.0672

* * *

- testParameters: in n-propanol, 313.15 K
propertyLabel: solubility (mole fraction)
Please give the numeric answer without any surrounding text.

Per the record, O=C(O)COc1ccc(Cl)cc1Cl has solubility (mole fraction) of 0.179

* * *

- testParameters: in ethanol, 313.15 K
propertyLabel: solubility (mole fraction)
Would you mind answering with just the numeric figure?

Note to self: solubility (mole fraction) recorded for O=C(O)COc1ccc(Cl)cc1Cl was 0.223
